These entries and their values trace back to the supplement of paper PMC10567573.

The entries below come with measured protein stability index values attached.
B1: EDARADD (parent)
chain: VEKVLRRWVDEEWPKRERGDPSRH

- Variants of: B1
- PROTOCOL_DESCRIPTION: protein stability index of a GFP-peptide fusion (GPS, HEK-293T) (PSI 1-6); higher = more stable;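 further: lentivirally expressed fusions sorted by FACS into six bins by GFP to DsRed ratio, PSI derived from sequencing read proportions per bin multiplied by bin number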
- COND: c terminus: a fixed tail appended
Form: value (number only, do not type unit).

For orientation, consider the following solved cases.
{"columns": ["MUTATION_ID", "protein stability index"],
 "data": [
  ["P14D", 2.39],
  ["R16F", 2.46],
  ["E17W", 1.83],
  ["L5W", 2.98],
  ["G19W", 2.1]
]}

Return reported protein stability index; argument: K3A
2.78

Return reported protein stability index; argument: R7D
4.05

Return reported protein stability index; argument: R16D
2.83

Return reported protein stability index; argument: E12H
1.99

Return reported protein stability index; argument: W13Q
3.94

Return reported protein stability index; argument: H24M
3.47
